Molecular target: Beta-galactosidase (Escherichia coli K-12)
Test: Percentage inhibition of Beta-galactosidase from Escherichia coli at 1 mM concentration
ASSAY_READOUT: inhibition

INSERT INTO assay_data (compound, value_observed) VALUES
  ('NCC1NCC(O)C1O (stereo not drawn)', '92%'),
  ('O[C@@H]1CNC[C@@H]1O', '41%'),
  ('OC(O)CC1NCC(O)C1O (stereo not drawn)', '48%'),
  ('CC(NCC1NCC(O)C1O)C(O)(c1ccccc1)c1ccccc1 (stereo not drawn)', '25%'),
  ('OC1CNC(CNCc2ccccc2)C1O (stereo not drawn)', '24%'),
  ('C[C@@H](NCC1NCC(O)C1O)c1ccccc1 (stereo partly drawn)', '34%'),
  ('OC1CNC(CNCn2ccnc2)C1O (stereo not drawn)', '49%'),
  ('OC1CNC(CNCC2CCN(Cc3ccccc3)CC2)C1O (stereo not drawn)', '39%');
